# ASSAY_REMARKS: Bioavailability in rat
# Type: ADME, organism-based
# ASSAY_SETUP: in vivo
bioavailability vs 20%: at or above is fulfilled, below is not fulfilled.

## Input Kindly determine if bioavailability recorded for O=C(O)[C@@H](CC1CCC1)N1C[C@H](CN2CCC(c3cnc4ccc(Cl)cn34)CC2)[C@@H](c2cccc(F)c2)C1 is above or exactly 20%.
## Output fulfilled

## Input Please give the result for CCc1ccn2c(C3CCN(C[C@H]4CN([C@H](CC5CCC5)C(=O)O)C[C@@H]4c4cccc(F)c4)CC3)cnc2c1 too.
## Output not fulfilled

* * *

# ASSAY_REMARKS: Bioavailability in rat
# Assay type: ADME, organism-based
# ASSAY_SETUP: in vivo
bioavailability vs 30%: at or above is Y, below is N.

Solved cases below.
O=C(O)[C@@H](CC1CCC1)N1C[C@H](CN2CCC(c3cnc4ccccn34)CC2)[C@@H](c2cccc(F)c2)C1	N
O=C(O)[C@@H](CC1CCC1)N1C[C@H](CN2CCC(c3cnc4ccc(-c5ccccc5)cn34)CC2)[C@@H](c2cccc(F)c2)C1	N
O=C(O)[C@@H](CC1CCC1)N1C[C@H](CN2CCC(c3cnc4ccc([N+](=O)[O-])cn34)CC2)[C@@H](c2cccc(F)c2)C1	Y
O=C(O)[C@@H](CC1CCC1)N1C[C@H](CN2CCC(c3cnc4ccc(C(F)(F)F)cn34)CC2)[C@@H](c2cccc(F)c2)C1	N

Moving on to the next compound.
## Input Kindly determine if bioavailability recorded for O=C(O)[C@@H](CC1CCC1)N1C[C@H](CN2CCC(c3cnc4ccc(F)cn34)CC2)[C@@H](c2cccc(F)c2)C1 is above or exactly 30%.
## Output Y
